The values you see were collected from patent US8106055B2.

Assign μ (binding on the μ opioid receptor, % inhibition) to each entry below.
# System: human μ opiate receptor (Homo sapiens)
# Construct: purchased PerkinElmer Life Sciences, Zaventem, Belgium RB-HOM; host or cells: CHO-K1 cells (membrane preparation)
# Sequence (P35372 whole entry): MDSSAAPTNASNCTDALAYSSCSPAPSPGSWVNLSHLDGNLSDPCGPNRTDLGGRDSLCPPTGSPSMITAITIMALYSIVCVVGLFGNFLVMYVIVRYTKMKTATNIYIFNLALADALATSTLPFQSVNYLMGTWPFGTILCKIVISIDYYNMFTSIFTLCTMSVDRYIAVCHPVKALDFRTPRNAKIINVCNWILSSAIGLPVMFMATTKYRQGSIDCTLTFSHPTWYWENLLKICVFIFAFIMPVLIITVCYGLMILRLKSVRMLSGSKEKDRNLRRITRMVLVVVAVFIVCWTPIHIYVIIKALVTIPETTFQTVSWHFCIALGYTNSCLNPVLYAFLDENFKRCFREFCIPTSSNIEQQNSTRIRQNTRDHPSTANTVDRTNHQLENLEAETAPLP
# Test protocol: Affinity for the human μ opiate receptor ([3H]-naloxone displacement, CHO-K1 receptor membrane preparation, SPA)
# Type: binding
# Stated conditions: test concentration of 1 μM
State the answer as a number, implicitly in %.

In: Fill in the blank: the reported μ (binding on the μ opioid receptor, % inhibition) of CCN(CCOCC(=O)NCC1CCC(C(c2ccc(F)cc2)N(C)C)CC1)S(=O)(=O)c1c(C)cc(OC)c(C)c1C (stereo not shown) [Example 327] is ____.
Out: 67

In: Follow-up item: CN(C)C(CCc1ccccc1)C1CCC(CNC(=O)COCC2CCCN2S(=O)(=O)c2ccc(Cl)c(Cl)c2)CC1 (stereo not shown) [Example 415]
Out: 55

In: Follow-up item: COc1cc(C)c(S(=O)(=O)N2CCC(OCC(=O)NCC3CCC(C(CCc4ccccc4)N(C)C)CC3)C2)c(C)c1C (stereo not shown) [Example 503]
Out: 37

In: Follow-up item: CN(C)C(c1ccc(Cl)cc1)C1CCC(CCNC(=O)COC2CCCN(S(=O)(=O)c3ccccc3)C2)CC1 (stereo not shown) [Example 395]
Out: 54

In: Follow-up item: CN(C)C(c1ccccc1)C1CCC(NC(=O)COC2CCN(S(=O)(=O)c3ccccc3)CC2)CC1 (stereo not shown) [Example 257]
Out: 74

In: Follow-up item: CN(C)C(c1ccccc1)C1CCC(NC(=O)COCCN(C)S(=O)(=O)c2ccc(OC(F)(F)F)cc2)CC1 (stereo not shown) [Example 594]
Out: 94

In: Follow-up item: Cc1ccc(S(=O)(=O)N(C)CCOCC(=O)NCC2CCC(C(c3ccc(Cl)cc3)N(C)C)CC2)cc1 (stereo not shown) [Example 273]
Out: 68

* * *

# System: bradykinin 1 receptor (B1R) of the rat (Rattus norvegicus)
# Construct: expressed in transfected cells; host or cells: CHO K1 cells
# Sequence (P97583 1-337): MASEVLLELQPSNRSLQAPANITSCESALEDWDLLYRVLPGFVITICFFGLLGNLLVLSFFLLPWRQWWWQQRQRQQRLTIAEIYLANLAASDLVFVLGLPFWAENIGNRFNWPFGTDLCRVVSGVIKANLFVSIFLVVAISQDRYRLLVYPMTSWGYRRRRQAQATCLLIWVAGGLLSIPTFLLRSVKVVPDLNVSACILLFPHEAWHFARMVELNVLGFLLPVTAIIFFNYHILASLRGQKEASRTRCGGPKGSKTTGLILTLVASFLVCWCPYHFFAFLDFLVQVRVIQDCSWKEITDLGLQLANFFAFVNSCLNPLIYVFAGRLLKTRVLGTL
# Test protocol: Functional investigation on the rat bradykinin 1 receptor (B1R), Ca2+ FLIPR assay in CHO K1 rB1R cells
# Assay type: cell-based
# Stated conditions: CHO-K1, B1R antagonism rat; test substance 10 μM; Ca2+ FLIPR, CHO K1 rB1R cells; read-out: B1R Ant. r [10 μM] % Inhibition
Assign inhibition at 10 µM to each entry below.
Give the figure together with its unit, number first.

In: Fill in the blank: the reported inhibition at 10 µM of COc1cc(C)c(S(=O)(=O)N2CCCC(COCC(=O)NC3CCC(C(CCc4ccccc4)N4CCCCC4)CC3)C2)c(C)c1 (stereo not shown) is ____.
Out: 70%

In: Follow-up item: O=C(COCC1CCCN(S(=O)(=O)c2c(Cl)cc(Cl)cc2Cl)C1)NCC1CCC(C(CCc2ccccc2)N2CCCC2)CC1 (stereo not shown)
Out: 56%

In: Follow-up item: COc1cc(C)c(S(=O)(=O)N(C)CCOCC(=O)NCC2CCC(C(c3ccccc3)N3CCCC3)CC2)c(C)c1 (stereo not shown)
Out: 105%

In: Follow-up item: O=C(COCC1CCCN1S(=O)(=O)c1c(Cl)cc(Cl)cc1Cl)NC1CCC(C(CCc2ccccc2)N2CCOCC2)CC1 (stereo not shown)
Out: 91%

In: Follow-up item: CN(C)C(c1cccc(F)c1)C1CCC(NC(=O)COCCN(C)S(=O)(=O)c2c(Cl)cccc2Cl)CC1 (stereo not shown)
Out: 43%

In: Follow-up item: COc1cc(C)c(S(=O)(=O)N2CCCCC2COCC(=O)NCC2CCC(C(c3ccccc3)N3CCCC3)CC2)c(C)c1 (stereo not shown)
Out: 105%

In: Follow-up item: COc1cc(C)c(S(=O)(=O)N2CCCC(OCC(=O)NCC3CCC(C(CCc4ccccc4)N4CCCC4)CC3)C2)c(C)c1 (stereo not shown)
Out: 80%
